# Tested on: UniProtKB O00187
# Sequence (O00187 445-686): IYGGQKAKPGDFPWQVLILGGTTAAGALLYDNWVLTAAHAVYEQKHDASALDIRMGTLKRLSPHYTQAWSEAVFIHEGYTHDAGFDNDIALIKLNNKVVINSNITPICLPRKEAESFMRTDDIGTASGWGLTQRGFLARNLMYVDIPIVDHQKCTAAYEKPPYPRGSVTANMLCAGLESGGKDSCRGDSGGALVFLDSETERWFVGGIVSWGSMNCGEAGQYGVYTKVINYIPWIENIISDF
# Sequence (O00187 364-432 partner): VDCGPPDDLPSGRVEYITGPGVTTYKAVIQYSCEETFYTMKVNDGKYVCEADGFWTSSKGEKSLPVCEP
# Assay name: MASP-2 co-crystallization, X-ray crystallography and structure analysis (H-bonds, van der Waals contacts)
# Test settings: Table A7-1; between pharmacophore elements of the bound compound
# Text: This example illustrates the preparation of recombinant MASP-2 protein, based on UniProt O00187, human mannan-binding lectin serine protease 2. Expression constructs for human MASP-2 CCP2-SP and CCP2-SP-6HIS were generated for recombinant expression in E. coli cells. […]
Where a name gives a salt, the structure may show the parent alone.
Param label: returns t when Pharmacophore torsion angle a(H4, O1, O2, N2) < 100, returns f otherwise, including exact equality.

// below: answered molecules
{"Molecule": "C[C@H](NC(=O)[C@H]1C[C@@H](c2ccccc2)CCN1)C(=O)NCc1cc(Cl)ccc1O.Cl [1078_10]", "Discrete label": "t"}
{"Molecule": "Cc1nc(N)ccc1CNC(=O)[C@H](C)NC(=O)[C@H]1C[C@H](Cc2cc(Cl)cc(Cl)c2)CN1 [compound 1435, Dihydrochloride]", "Discrete label": "f"}
{"Molecule": "Cc1nc(N)ccc1CNC(=O)[C@H](C)NC(=O)[C@H]1C[C@H](Cc2cccc(Cl)c2)CN1.Cl.Cl [1328_3]", "Discrete label": "f"}

Input C[C@H](NC(=O)[C@H](N)CCCc1ccccc1)C(=O)NCc1ccc(C(=N)N)cc1.Cl.Cl [1042_2] ; condition: Pharmacophore torsion angle a(H4, O1, O2, N2) strictly below 100. Does it hold? t

Input N=C(N)c1ccc(CNC(=O)[C@@H]2CCN2C(=O)[C@H]2Cc3ccccc3CN2)cc1 ; condition: Pharmacophore torsion angle a(H4, O1, O2, N2) strictly below 100. Does it hold? f

Input Cc1nc(N)ccc1CNC(=O)[C@H](C)NC(=O)[C@H]1C[C@H](Cc2ccc3ccccc3c2)CN1 ; condition: Pharmacophore torsion angle a(H4, O1, O2, N2) strictly below 100. Does it hold? f

Input C[C@H](NC(=O)[C@H](N)CCCc1ccccc1)C(=O)NCc1ccc(C(=N)N)cc1.Cl.Cl [1042_1] ; condition: Pharmacophore torsion angle a(H4, O1, O2, N2) strictly below 100. Does it hold? t
